conditions: 0.5 h, 10 μM
Measurement type: Prodrug (%) remaining, Human Plasma

Field: example entries. Status: answers known.
COc1ccc([C@@]23CCC(OC(=O)c4c(C)cc(C)cc4C)=C[C@@H]2N(C)CC3)cc1OC : >99%
COc1ccc([C@@]23CCC(OC(=O)c4c(C)cccc4C)=C[C@@H]2N(C)CC3)cc1OC : >99%

Could you now consider this next compound?
What does the data say about its Prodrug (%) remaining, Human Plasma? Entry: CCCCC(CC)C(=O)OC1=C[C@@H]2N(C)CC[C@]2(c2ccc(OC)c(OC)c2)CC1 (stereo partly drawn)
>99%

---

Let's look at some molecules and their measured Condition 2 Conversion (%).
assay type: physicochemical; conditions: DI water, 25° C., 0.5 mM; time 30 min
Express the result in % but write the number alone.

COc1ccc([C@@]23CCC(=NOCC(=O)O)C[C@@H]2N(C)CC3)cc1OC : 0
COc1ccc([C@@]23CCC(=NOCCOc4ccccc4)C[C@@H]2N(C)CC3)cc1OC : 0
COc1ccc([C@@]23CCC(=NNc4ccc(F)cc4)C[C@@H]2N(C)CC3)cc1OC : 0

What does the data say about its Condition 2 Conversion (%)? Entry: "COc1ccc([C@@]23CCC(OC(=O)CC(C)C)=C[C@@H]2N(C)CC3)cc1OC"
0

# iterate: "C/C=C(\C)C(=O)OC1=C[C@@H]2N(C)CC[C@]2(c2ccc(OC)c(OC)c2)CC1"
0

# iterate: "COc1ccc([C@@]23CCC(=NNC(=O)CC[C@H](NC(=O)c4ccc(NCc5cnc6nc(N)nc(O)c6n5)cc4)C(=O)O)C[C@@H]2N(C)CC3)cc1OC"
100

---

Let's look at some compounds and their measured Prodrug (%) remaining, Rat Plasma.
conditions: 1 h, 10 μM
Express the result in % but write the number alone.

COc1ccc([C@@]23CCC(OC(=O)c4ccc(C(C)C)cc4)=C[C@@H]2N(C)CC3)cc1OC : 0.1
CCC(CC)C(=O)OC1=C[C@@H]2N(C)CC[C@]2(c2ccc(OC)c(OC)c2)CC1 : 9.5
COCCOCCC(=O)OC1=C[C@@H]2N(C)CC[C@]2(c2ccc(OC)c(OC)c2)CC1 : 0.1

What does the data say about its Prodrug (%) remaining, Rat Plasma? Entry: "COCCCCC(=O)OC1=C[C@@H]2N(C)CC[C@]2(c2ccc(OC)c(OC)c2)CC1"
0.3

# iterate: CCCCCC(C)C(=O)OC1=C[C@@H]2N(C)CC[C@]2(c2ccc(OC)c(OC)c2)CC1 (stereo partly shown)
0.1

# iterate: "COc1ccc([C@@]23CCC(OC(=O)CCC(C)C)=C[C@@H]2N(C)CC3)cc1OC"
0.0

# iterate: "COc1ccc([C@@]23CCC(OC(=O)CC(C)(C)C)=C[C@@H]2N(C)CC3)cc1OC"
16.5

# iterate: "COc1ccc([C@@]23CCC(OC(=O)c4cccc(C)c4)=C[C@@H]2N(C)CC3)cc1OC"
0.1

# iterate: CCCCC(CC)C(=O)OC1=C[C@@H]2N(C)CC[C@]2(c2ccc(OC)c(OC)c2)CC1 (stereo partly shown)
33.8

# iterate: "CCCCCCCC(=O)OC1=C[C@@H]2N(C)CC[C@]2(c2ccc(OC)c(OC)c2)CC1"
0.1

# iterate: "CCCC(CCC)C(=O)OC1=C[C@@H]2N(C)CC[C@]2(c2ccc(OC)c(OC)c2)CC1"
43.9
